ASSAY PROTOCOL: eIF4E expression suppression, luciferase knock-in reporter – cell-based, HT1080, primary screen (AID 1224817);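 further: luciferase reports endogenous eIF4E expression since it is co-expressed from the native EIF4E locus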
MEASUREMENT CONTEXT: HT1080 EIF4E-luc2 knock-in reporter, 16 h, at 2.5 µM, stronger effect = lower value
Among all 2,000 compounds or so, about 25 (1%) were called active. Shown is part of a subset that was picked to be rich in actives.
READOUT LABEL: log2 luciferase activity ratio

MOLECULE | NUMERIC RESULT
NCCSc1nc(-c2ccccc2)c(-c2ccccc2)o1 | -0.0133
O=S1(=O)C(c2ccccc2)C(N2CCCCC2)C1C1CC2c3ccccc3C1c1ccccc12 (stereo unspecified) | 0.456
CC1(C)CC23C4COC(=O)C2CCC1C3CC4=O (stereo unspecified) | 0.113
CCCCCC[C@H]([C@H](C)O)n1cnc2c(N)ncnc21 | -0.0979
C[C@@H]1C(=O)C[C@H]2C(C)(C)CCC[C@]2(C)[C@@]1(O)CCc1ccoc1 | -0.608
O=C(N/N=C/c1ccc2c(c1)CCC2)c1ccccc1O | 0.157

###

ASSAY PROTOCOL: eIF4E expression suppression, luciferase knock-in reporter – cell-based, HT1080, primary screen (AID 1224817);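 further: luciferase reports endogenous eIF4E expression since it is co-expressed from the native EIF4E locus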
MEASUREMENT CONTEXT: HT1080 EIF4E-luc2 knock-in reporter, 16 h, at 2.5 µM
Hit rate of the full screen: of about 2,000 compounds, about 25 (1%) were called active.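 How the source made its calls: active means log2 luciferase ratio at or below -0.5849, meaning signal at two thirds of solvent-only control or lower; inactive means the rest.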 Shown is part of a subset that was picked to be rich in actives.
Classes used: active, inactive

COMPOUND | LABEL
CC(C)Cn1cnc2c(Sc3c([N+](=O)[O-])ncn3C)nc(N)nc21 | inactive
O=C(O)CNC(=O)C1NC(C(F)(F)F)(C(F)(F)F)OC1(C(F)(F)F)C(F)(F)F (stereo not given) | inactive
O=C(O)CC(C(=O)O)c1ccccc1[N+](=O)[O-] (stereo not given) | inactive
Cc1c2cccc(Sc3ccccc3)c2c2c3c(cccc13)[S+](c1ccccc1)C2 (stereo not given) | inactive
C/C(=N\NC1=NCCN1)c1cn(C2=NCCN2)nc1C | inactive
COc1cccc2c1C(CO)N1C(C#N)C3CC(C(=O)O)C(C1C2)N3C (stereo not given) | active
O=C(CSc1nc2ccccc2s1)c1sc2sc3ccccc3[n+]2c1[O-] | inactive
O=C(O)/C=C/C(=O)Nc1cccc2c1-c1ccccc1C2=O | inactive
NCC(=O)Nc1ccccc1 | active
CC1=C2[C@H]3OC(=O)[C@@H](C)[C@@H]3CC[C@@]2(C)C=C/C1=N\O | inactive
COc1ccc(C[N+](C)(C)N)cc1OC | inactive
CN(C)CCCn1c2c3ccccc3ccc2c2oc(=O)c3ccccc3c21 | inactive
Cn1cnc([N+](=O)[O-])c1Sc1nc(N)nc2c1ncn2C1CC(O)C(CO)O1 (stereo not given) | active
COc1ccc(CCN(C)CCCC(C#N)(c2ccc(OC)c(OC)c2)C(C)C)cc1OC (stereo not given) | active
O=[N+]([O-])c1nccn1CC(O)CN1CCCCC1 (stereo not given) | inactive
O=C1c2cccc(O)c2C(=O)c2c(OC3OC(CO)C(O)C(O)C3O)cccc21 (stereo not given) | inactive
CC(=O)CC(=O)Nc1ccc2ccccc2c1 | inactive
C/C=C/c1cc2c(c(=O)o1)C(=O)[C@@H](O)[C@H](C)O2 | inactive
O=C(O)c1ccc(C(=O)O)c(C(=O)O)c1.[NH-]C1CCCCC1[NH-].[Pt+2] | inactive
COc1nc(N)nc2c1ncn2C1CC(O)C(CO)O1 (stereo not given) | inactive
CC[C@@H]1CN(C)[C@H]2Cc3c([nH]c4ccccc34)C(=O)C[C@H]1C2C(=O)OC (stereo not given in full) | inactive
CN1CC(c2ccccc2)C(O)(C2(c3ccccc3)CN(C)CC(c3ccccc3)C2=O)C(c2ccccc2)C1 (stereo not given) | inactive
CSc1nc(C)cc(Nc2ccc(O)c(CN3CCOCC3)c2)n1 | inactive
O=C(O)C1CC[N-]CC1.O=C(O)C1CC[N-]CC1.[NH2-].[NH2-].[Pt+4] | inactive
Cc1cc(N=Cc2c(CO)cnc(C)c2O)c(N=Cc2c(CO)cnc(C)c2O)cc1C.[Zn] | inactive
